Origin of values: patent US11944616B2

Each entry below carries its recorded melting point.
parameter-measured: melting point

>>> df
                                   compound  measured_result
0  CC[N+]1(CC)[C@H]2Cc3ccccc3[C@]1(C)c1ccccc12    237 to 238 °C
1  CCC[N@@+]1(CC2CC2)[C@@H]2Cc3ccccc3[C@@]1(C)c1ccccc12    203 to 204 °C
2  CCCC[N@@+]1(CC2CC2)[C@@H]2Cc3ccccc3[C@@]1(C)c1ccccc12    171 to 172 °C
3  C[C@@]12c3ccccc3C[C@@H](c3ccccc31)[N@@+]2(C)Cc1ccc(F)cc1      92 to 94 °C
4  COc1ccc(C[N@+]2(C)[C@H]3Cc4ccccc4[C@]2(C)c2ccccc23)cc1    101 to 103 °C
5  C[C@@]12c3ccccc3C[C@@H](c3ccccc31)[N@@+]2(C)CC1(c2ccc(Cl)cc2)CC1    162 to 164 °C
6  C[C@@]12c3ccccc3C[C@@H](c3ccccc31)[N@@+]2(C)CC1CC1    103 to 105 °C
7  CCC[N@+]1(C)[C@H]2Cc3ccccc3[C@]1(C)c1ccccc12    214 to 217 °C
8  CC[N@@+]1(CCO)[C@H]2Cc3ccccc3[C@]1(C)c1ccccc12 (racemic) [Compound No 27]    205 to 208 °C
